This section presents binders with their documented log10 of koff values.
Target: T1, human glycophorin A on human red blood cells or red blood cell membranes (human, UniProt P02724 20-150)
T1 construct: whole, on cells; also called hRBC; human RBC membranes
T1 sequence (looked up): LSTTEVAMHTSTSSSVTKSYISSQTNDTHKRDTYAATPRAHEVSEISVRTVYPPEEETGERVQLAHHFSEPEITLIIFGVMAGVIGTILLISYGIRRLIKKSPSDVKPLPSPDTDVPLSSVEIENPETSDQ
Experiment: SPR (Biacore), Fab on human RBC membranes;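 further: human RBC membranes captured on an L1 sensor chip, Fab fragments passed over as analyte, binding kinetics read by surface plasmon resonance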
// do not treat as linear: log10 of koff, unit s⁻¹

Take a look at these entries with their results.
| binder | reading |
| --- | --- |
| TPP-5906, humanized and germlined 6C12 Fab; VL: (S24R, A26S, S49A, P54Q, F95Y); VH: (I48M, D56G, D66G, L70M, T72R) (Fab, V domains shown, The text says that a 6xHIS tag is present on the Fabs in the peptide ELISA; it is not in the printed chains) VH: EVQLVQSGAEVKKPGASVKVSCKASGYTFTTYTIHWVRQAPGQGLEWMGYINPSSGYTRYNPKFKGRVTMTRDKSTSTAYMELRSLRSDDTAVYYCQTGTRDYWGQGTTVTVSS VL: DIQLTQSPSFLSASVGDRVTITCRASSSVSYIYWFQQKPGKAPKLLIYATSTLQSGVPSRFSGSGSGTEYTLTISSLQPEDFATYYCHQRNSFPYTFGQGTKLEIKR | -2.30 |
| TPP-7793, affinity matured 6C12 Fab (Fab, V domains shown, Tested as Fab) VH: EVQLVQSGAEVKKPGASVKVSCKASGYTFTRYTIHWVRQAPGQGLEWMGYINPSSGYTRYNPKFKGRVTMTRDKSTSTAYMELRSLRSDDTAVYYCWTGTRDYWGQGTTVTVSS VL: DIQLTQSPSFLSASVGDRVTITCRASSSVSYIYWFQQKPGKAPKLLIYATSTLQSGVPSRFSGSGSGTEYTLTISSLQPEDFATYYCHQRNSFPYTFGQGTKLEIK | -3.30 |
| TPP-7776, affinity matured 6C12 Fab (Fab, V domains shown, Tested as Fab) VH: EVQLVQSGAEVKKPGASVKVSCKASGYTFTTYAIHWVRQAPGQGLEWMGYINPSSGYTRYNPKFKGRVTMTRDKSTSTAYMELRSLRSDDTAVYYCQTGTRDYWGQGTTVTVSS VL: DIQLTQSPSFLSASVGDRVTITCRASSSVRYIYWFQQKPGKAPKLLIYATSTLRSGVPSRFSGSGSGTEYTLTISSLQPEDFATYYCHQRNSFPYTFGQGTKLEIK | -3.01 |

Problem: So what does the record say about log10 of koff for TPP-7777, affinity matured 6C12 Fab (Fab, V domains shown, Tested as Fab) VH: EVQLVQSGAEVKKPGASVKVSCKASGYTFTTYTIHWVRQAPGQGLEWMGYINPSSGWTRYNPKFKGRVTMTRDKSTSTAYMELRSLRSDDTAVYYCWTGRRDYWGQGTTVTVSS VL: DIQLTQSPSFLSASVGDRVTITCRASSSVSYIYWFQQKPGKAPKLLIYATSTRQSGVPSRFSGSGSGTEYTLTISSLQPEDFATYYCHQRNSFPYTFGQGTKLEIK ?
Solution: -3.43

Problem: Tell me the measured log10 of koff of TPP-7788, affinity matured 6C12 Fab (Fab, V domains shown, Tested as Fab) VH: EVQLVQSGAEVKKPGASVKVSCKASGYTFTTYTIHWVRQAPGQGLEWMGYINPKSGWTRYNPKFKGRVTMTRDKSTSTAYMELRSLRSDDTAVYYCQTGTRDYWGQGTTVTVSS VL: DIQLTQSPSFLSASVGDRVTITCRASSSVSYIYWFQQKPGKAPKLLIYATSFRQSGVPSRFSGSGSGTEYTLTISSLQPEDFATYYCHQRNSFPYTFGQGTKLEIK , please.
Solution: -3.38

Problem: Given TPP-7781, affinity matured 6C12 Fab (Fab, V domains shown, Tested as Fab) VH: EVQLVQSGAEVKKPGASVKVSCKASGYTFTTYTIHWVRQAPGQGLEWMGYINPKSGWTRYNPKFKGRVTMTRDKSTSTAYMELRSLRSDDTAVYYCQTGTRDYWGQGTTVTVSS VL: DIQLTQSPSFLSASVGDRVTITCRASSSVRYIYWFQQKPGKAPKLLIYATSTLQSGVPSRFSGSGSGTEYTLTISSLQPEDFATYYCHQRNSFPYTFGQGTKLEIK , state its recorded log10 of koff.
Solution: -3.26

Data credit: patent US20190359687A1
